# experimental-system: Genome polyprotein (West Nile virus, UniProt P06935)
# Sequence (P06935 1371-1501 limits assumed): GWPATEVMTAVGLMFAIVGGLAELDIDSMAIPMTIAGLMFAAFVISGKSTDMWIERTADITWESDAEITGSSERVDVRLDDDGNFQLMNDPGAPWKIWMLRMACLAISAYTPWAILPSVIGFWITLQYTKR
# Sequence (P06935 1502-2120 limits assumed): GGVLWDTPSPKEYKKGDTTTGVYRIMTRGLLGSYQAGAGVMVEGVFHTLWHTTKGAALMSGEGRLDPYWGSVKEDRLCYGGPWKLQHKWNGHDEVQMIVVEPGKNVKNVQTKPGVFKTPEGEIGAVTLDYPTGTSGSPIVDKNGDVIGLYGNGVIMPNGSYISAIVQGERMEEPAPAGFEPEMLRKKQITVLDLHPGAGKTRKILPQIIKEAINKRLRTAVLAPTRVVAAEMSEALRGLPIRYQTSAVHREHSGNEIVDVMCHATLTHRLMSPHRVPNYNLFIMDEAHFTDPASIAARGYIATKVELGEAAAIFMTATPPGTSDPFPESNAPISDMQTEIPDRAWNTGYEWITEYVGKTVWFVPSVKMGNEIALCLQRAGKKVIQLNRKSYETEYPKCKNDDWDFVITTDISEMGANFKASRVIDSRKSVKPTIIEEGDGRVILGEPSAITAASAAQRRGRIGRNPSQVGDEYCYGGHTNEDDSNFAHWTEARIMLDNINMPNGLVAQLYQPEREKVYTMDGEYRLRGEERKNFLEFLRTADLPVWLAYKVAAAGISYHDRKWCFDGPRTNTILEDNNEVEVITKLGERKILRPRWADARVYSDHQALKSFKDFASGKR
Square brackets hold non-standard residues; d marks the D form. Peptide text beside a SMILES is read from it. * marks the point of attachment. Phg = N[C@H](C(=O)O)c1ccccc1; Bz = O=C(c1ccccc1)*
property: IC50 (µM)
Lab book: enter the figure in µM, no units written.

Observed IC50 on Genome polyprotein (West Nile virus, UniProt P06935), entry N=C(N)NCCC[C@H](NC(=O)c1ccccc1)C(=O)N[C@@H](CCCCN)C(=O)N[C@H](C(N)=O)c1ccccc1 (Bz-Arg-Lys-[Phg]-NH2) , equals 58

----------
# experimental-system: UniProt:P12823
# test-method-notes: Inhibition of Dengue virus serotype 2 NS2B-NS3 protease at 50 uM by homogeneous fluorimetric assay
Square brackets hold non-standard residues; d marks the D form. Peptide text beside a SMILES is read from it. * marks the point of attachment. Cha = N[C@@H](CC1CCCCC1)C(=O)O; Bz = O=C(c1ccccc1)*
Catalogue of compounds with associated inhibition
Lab book: enter the figure in %, no units written.

compound: CC(C)(C)[C@H](NC(=O)[C@H](CCCCN)NC(=O)[C@H](CCCNC(=N)N)NC(=O)c1ccc(/C=C2\SC(=O)N(C3CCCC3)C2=O)cc1)C(N)=O
inhibition, %: 60.6

compound: N=C(N)NCCC[C@H](NC(=O)c1ccccc1)C(=O)N[C@@H](CCCCN)C(=O)N[C@@H](Cc1c[nH]c2ccccc12)C(N)=O (Bz-Arg-Lys-Trp-NH2)
inhibition, %: 74.1

compound: C[C@@H](O)[C@H](NC(=O)[C@H](CCCCN)NC(=O)[C@H](CCCNC(=N)N)NC(=O)c1ccccc1)C(N)=O (Bz-Arg-Lys-Thr-NH2)
inhibition, %: 32.1

compound: C[C@H](NC(=O)[C@H](CCCCN)NC(=O)[C@H](CCCNC(=N)N)NC(=O)c1ccccc1)C(N)=O (Bz-Arg-Lys-Ala-NH2)
inhibition, %: 46.6

compound: N=C(N)NCCC[C@H](NC(=O)c1ccc(/C=C2\SC(=O)N(C3CCCC3)C2=O)cc1)C(=O)N[C@@H](CCCCN)C(=O)N1Cc2ccccc2CC1C(N)=O (stereo partly specified)
inhibition, %: 85.7

Query compound follows.
According to the records, this compound N=C(N)NCCC[C@H](NC(=O)c1ccccc1)C(=O)N[C@@H](CCCCN)C(=O)N[C@@H](CC1CCCCC1)C(N)=O (Bz-Arg-Lys-[Cha]-NH2) displays inhibition of 80

----------
# experimental-system: Genome polyprotein (West Nile virus, UniProt P06935)
Square brackets hold non-standard residues; d marks the D form. Peptide text beside a SMILES is read from it. * marks the point of attachment. Phg = N[C@H](C(=O)O)c1ccccc1; Bz = O=C(c1ccccc1)*
property: Ki (µM)
Lab book: enter the figure in µM, no units written.

Observed Ki on Genome polyprotein (West Nile virus, UniProt P06935), entry N=C(N)NCCC[C@H](NC(=O)c1ccccc1)C(=O)N[C@@H](CCCCN)C(=O)N[C@H](C(N)=O)c1ccccc1 (Bz-Arg-Lys-[Phg]-NH2) , equals 49

----------
Catalogue of molecules with associated inhibition
# experimental-system: Genome polyprotein (dengue virus type 2)
# test-method-notes: Inhibition of Dengue virus serotype 2 NS2B-NS3 protease at 50 uM by homogeneous fluorimetric assay
Square brackets hold non-standard residues; d marks the D form. Peptide text beside a SMILES is read from it. * marks the point of attachment. ξ: configuration not given here. Phe(4-CN) = N#Cc1ccc(C[C@H](N)C(=O)O)cc1; 3Abz = Nc1cccc(C(=O)O)c1; 4Abz = Nc1ccc(C(=O)O)cc1; Nva = CCC[C@H](N)C(=O)O; 2Abz = Nc1ccccc1C(=O)O; ξPra = C#CCC(N)C(=O)O; Bz = O=C(c1ccccc1)*; βAla = NCCC(=O)O
Lab book: enter the figure in %, no units written.

// known answers, use as guide
molecule: CCCC[C@H](NC(=O)[C@H](CCCCN)NC(=O)[C@H](CCCNC(=N)N)NC(=O)c1ccc(/C=C2\SC(=O)N(C3CCCC3)C2=O)cc1)C(N)=O
inhibition / %: 98.2

molecule: N=C(N)NCCC[C@H](NC(=O)c1ccccc1)C(=O)N[C@@H](CCCCN)C(=O)N1CCC[C@H]1C(N)=O (Bz-Arg-Lys-Pro-NH2)
inhibition / %: 20

molecule: N=C(N)NCCC[C@H](NC(=O)c1ccccc1)C(=O)N[C@@H](CCCCN)C(=O)N[C@@H](CO)C(N)=O (Bz-Arg-Lys-Ser-NH2)
inhibition / %: 57.9

molecule: N#C/C(=C\c1ccc(C(=O)N[C@@H](CCCNC(=N)N)C(=O)N[C@@H](CCCCN)C(=O)N2Cc3ccccc3CC2C(N)=O)cc1)C(=O)NC1CC1 (stereo partly specified)
inhibition / %: 59.2

molecule: CC(C)(C)[C@H](NC(=O)[C@H](CCCCN)NC(=O)[C@H](CCCNC(=N)N)NC(=O)c1ccc(/C=C(\C#N)C(=O)NC2CC2)cc1)C(N)=O
inhibition / %: 32.5

molecule: N=C(N)NCCC[C@H](NC(=O)c1ccccc1)C(=O)N[C@@H](CCCCN)C(=O)Nc1cccc(C(N)=O)c1 (Bz-Arg-Lys-[3Abz]-NH2)
inhibition / %: 27

molecule: CCC[C@H](NC(=O)[C@H](CCCCN)NC(=O)[C@H](CCCNC(=N)N)NC(=O)c1ccccc1)C(N)=O (Bz-Arg-Lys-[Nva]-NH2)
inhibition / %: 62

molecule: N=C(N)NCCC[C@H](NC(=O)c1ccccc1)C(=O)N[C@@H](CCCCN)C(=O)Nc1ccccc1C(N)=O (Bz-Arg-Lys-[2Abz]-NH2)
inhibition / %: 62

Observed inhibition on Genome polyprotein (dengue virus type 2), entry N#Cc1ccc(C[C@H](NC(=O)[C@H](CCCCN)NC(=O)[C@H](CCCNC(=N)N)NC(=O)c2ccccc2)C(N)=O)cc1 (Bz-Arg-Lys-[Phe(4-CN)]-NH2) , equals 71.7

Observed inhibition on Genome polyprotein (dengue virus type 2), entry N=C(N)NCCC[C@H](NC(=O)c1ccccc1)C(=O)N[C@@H](CCCCN)C(=O)Nc1ccc(C(N)=O)cc1 (Bz-Arg-Lys-[4Abz]-NH2) , equals 27.5

Observed inhibition on Genome polyprotein (dengue virus type 2), entry N=C(N)NCCC[C@H](NC(=O)c1ccccc1)C(=O)N[C@@H](CCCCN)C(=O)NCCC(N)=O (Bz-Arg-Lys-[βAla]-NH2) , equals 32.9

Observed inhibition on Genome polyprotein (dengue virus type 2), entry C#CCC(NC(=O)[C@H](CCCCN)NC(=O)[C@H](CCCNC(=N)N)NC(=O)c1ccccc1)C(N)=O (stereo partly drawn) (Bz-Arg-Lys-[ξPra]-NH2) , equals 72.5

Observed inhibition on Genome polyprotein (dengue virus type 2), entry CC(C)C[C@H](NC(=O)[C@H](CCCCN)NC(=O)[C@H](CCCNC(=N)N)NC(=O)c1ccccc1)C(N)=O (Bz-Arg-Lys-Leu-NH2) , equals 63.2
